# target entity: Upc2 (UniProt Q12151)
# Sequence: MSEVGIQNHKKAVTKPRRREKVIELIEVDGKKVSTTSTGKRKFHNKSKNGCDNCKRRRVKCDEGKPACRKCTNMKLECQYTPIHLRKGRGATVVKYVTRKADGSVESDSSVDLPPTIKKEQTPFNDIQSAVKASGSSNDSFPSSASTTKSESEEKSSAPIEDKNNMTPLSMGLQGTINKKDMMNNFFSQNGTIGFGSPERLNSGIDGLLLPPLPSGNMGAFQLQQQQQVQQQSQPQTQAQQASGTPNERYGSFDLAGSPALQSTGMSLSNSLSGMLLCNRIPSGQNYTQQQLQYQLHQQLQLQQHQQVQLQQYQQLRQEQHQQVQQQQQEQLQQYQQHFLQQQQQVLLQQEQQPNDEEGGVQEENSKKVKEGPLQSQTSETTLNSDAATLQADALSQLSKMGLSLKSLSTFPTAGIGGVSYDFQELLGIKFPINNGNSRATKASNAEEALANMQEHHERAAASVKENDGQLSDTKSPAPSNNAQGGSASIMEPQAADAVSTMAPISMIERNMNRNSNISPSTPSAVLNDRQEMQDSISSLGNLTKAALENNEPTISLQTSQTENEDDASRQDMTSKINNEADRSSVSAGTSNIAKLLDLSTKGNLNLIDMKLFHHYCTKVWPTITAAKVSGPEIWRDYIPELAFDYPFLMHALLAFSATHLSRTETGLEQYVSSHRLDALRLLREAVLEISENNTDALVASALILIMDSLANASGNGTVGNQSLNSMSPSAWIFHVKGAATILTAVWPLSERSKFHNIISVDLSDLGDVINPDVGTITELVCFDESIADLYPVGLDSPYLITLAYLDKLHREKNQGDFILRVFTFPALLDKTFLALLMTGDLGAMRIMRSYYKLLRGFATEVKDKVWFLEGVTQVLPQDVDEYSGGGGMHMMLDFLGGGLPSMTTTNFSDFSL
# procedure text: PBM E-score (8-mer binding enrichment) (E-score (-0.5 to 0.5)); higher = stronger / more preferred TF binding
# condition details: protein concentration: 200 nM; construct: GST-full length
The full ranking holds about 33,000 sequences; the median of “E-score (-0.5 to 0.5)” is about -0.043, and the highest 2% start at about 0.37. The entries come from a sample that favours the highest values as a whole.
Entry class follows PBM E-score: bin A = under -0.03, bin B = from -0.03 up to 0.3, bin C = 0.3 and over

For CCCTGCGC , which PBM E-score bin applies?
bin A

====

Documented PBM E-score across a set of sequences
# target entity: Upc2 (UniProt Q12151)
# Sequence: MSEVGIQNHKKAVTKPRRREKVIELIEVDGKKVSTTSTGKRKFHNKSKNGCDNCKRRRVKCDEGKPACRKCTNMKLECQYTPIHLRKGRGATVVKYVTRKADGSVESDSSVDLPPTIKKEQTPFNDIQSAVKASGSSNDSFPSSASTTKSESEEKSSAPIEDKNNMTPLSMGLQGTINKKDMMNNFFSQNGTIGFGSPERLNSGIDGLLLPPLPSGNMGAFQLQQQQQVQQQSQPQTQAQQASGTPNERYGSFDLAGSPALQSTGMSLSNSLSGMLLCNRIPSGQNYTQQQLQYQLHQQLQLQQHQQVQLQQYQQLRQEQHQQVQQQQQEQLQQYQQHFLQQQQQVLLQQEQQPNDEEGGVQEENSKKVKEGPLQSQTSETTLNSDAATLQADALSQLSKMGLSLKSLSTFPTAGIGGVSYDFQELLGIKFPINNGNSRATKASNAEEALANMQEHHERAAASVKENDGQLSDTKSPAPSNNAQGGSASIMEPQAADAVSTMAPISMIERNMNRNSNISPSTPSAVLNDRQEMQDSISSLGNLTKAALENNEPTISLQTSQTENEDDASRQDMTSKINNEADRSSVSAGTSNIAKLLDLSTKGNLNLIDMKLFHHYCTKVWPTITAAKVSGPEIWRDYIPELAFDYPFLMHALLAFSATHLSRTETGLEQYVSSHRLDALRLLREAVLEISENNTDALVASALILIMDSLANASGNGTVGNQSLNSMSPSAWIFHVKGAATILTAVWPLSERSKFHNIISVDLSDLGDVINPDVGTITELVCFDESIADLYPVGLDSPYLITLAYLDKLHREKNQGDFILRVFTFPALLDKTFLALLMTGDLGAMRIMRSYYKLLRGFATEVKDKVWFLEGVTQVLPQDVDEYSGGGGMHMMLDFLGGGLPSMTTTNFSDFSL
# procedure text: PBM E-score (8-mer binding enrichment) (E-score (-0.5 to 0.5)); higher = stronger / more preferred TF binding
# condition details: protein concentration: 200 nM; construct: GST-full length
Whole data set: some 33,000 sequences, median “E-score (-0.5 to 0.5)” near -0.043, cut for the highest 2% near 0.37. The sample holds the highest values, similar sequences and a random draw of the others, so the mix is not that of the screen.
Just the number, please, no unit attached.

Some solved entries appear below for comparison.
GCCGTAGC; 0.0955
CATGCTAA; -0.2

Now turn to the next sequence.
Answer with reported PBM E-score of AGAAGCGG
-0.222
